# System: MCF7 breast
# assay-overview: NCI-60 one-dose screen, 48 h (100 = growth as untreated, 0 = no growth, -100 = all killed)
# condition-label: 10 µM unless noted
The panel holds about 83,000 compounds, 20% with a hit somewhere; the sample as a whole holds those more often.
The reader will find reported growth values listed item by item below.
assay-readout: growth (%)

>>> readout_number("CC[C@H](C)[C@H](NC(=O)c1ncccn1)C(=O)N(C)[C@H](C[C@@H](OC(C)=O)c1nc(C(=O)N[C@@H](Cc2ccccc2)C[C@H](C)C(=O)OC)cs1)C(C)C")
18.9
>>> readout_number("COc1ccn(C)c(=O)c1C#N")
93
>>> readout_number("CN1CCC2(CC1)C(C#N)C(=O)NC(=O)C2C#N (stereo not given)")
88.6
>>> readout_number("COc1ccc2c(c1)C1(C)CCN(C)CC(C1)C2O (stereo not given)")
96
>>> readout_number("CCC(=O)C(CC(C)[N+](C)(C)C)(c1ccccc1)c1ccccc1 (stereo not given)")
90.7

====

# System: HOP-92 NSCLC
# assay-overview: NCI-60 one-dose screen, 48 h
# condition-label: 10 µM unless noted
About 83,000 compounds went through this panel and 20% of them were active in at least one assay; those are over-represented in the sample as a whole. Activity calls are given as the source filed them. The calls were made as follows: active = growth percent below 10; inactive = the rest.
Possible outcomes: active, inactive

>>> assigned_label("O=C(Cc1ccccc1)c1ccccc1")
"inactive"
>>> assigned_label("O=S1(=O)OCCO1")
"inactive"
>>> assigned_label("[N-]=[N+]=CC(=O)CCC(=O)C=[N+]=[N-]")
"inactive"
>>> assigned_label("CO[C@@H]([CH2][Hg][O]C(=O)c1ccccc1)[C@@H]([CH2][Hg][O]C(=O)c1ccccc1)OC")
"inactive"
>>> assigned_label("O=S(=O)(c1ccc(O)cc1)c1ccccc1O")
"inactive"
>>> assigned_label("CCOC(=O)c1ccccc1C(=O)OCC")
"inactive"
>>> assigned_label("Cc1cc[c-]cc1.Fc1c[c-]c(-c2ccccn2)c(F)c1.N#CCC[PH+](CCC#N)c1ccccc1.[Pt+2]")
"inactive"
>>> assigned_label("CC[C@H](C)[C@H](NC(=O)[C@H]1CCCCN1C)C(=O)N(C)[C@H](C[C@@H](OC(C)=O)c1cccc(C(=O)N[C@@H](Cc2ccccc2)C[C@H](C)C(=O)OC)n1)C(C)C")
"active"
>>> assigned_label("CC[C@H](C)[C@H](NC(=O)[C@H]1CCCCN1C)C(=O)N(C)[C@H](C(=O)NC12CC(C(=O)N[C@@H](Cc3ccccc3)C[C@H](C)C(=O)OC)(C1)C2)C(C)C")
"inactive"

====

# Tested on: SK-OV-3 ovarian
# assay-overview: NCI-60 one-dose screen, 48 h (100 = growth as untreated, 0 = no growth, -100 = all killed)
# condition-label: 10 µM unless noted
# Description: Growth inhibition of the SK-OV-3 human tumor cell line is measured as a screen for anti-cancer activity. Cells are grown in 96 well plates and exposed to the test compound for 48 hours. Compounds are tested at a single concentration, which is 10^-5 M for most compounds. The reported endpoint is percent growth (GI% or GIPRCNT), where numbers from 0 - 100% represent growth inhibition, and numbers from -100% - 0 represent cell death. For example, a value of 40 represents 60% growth inhibition. […]
About 83,000 compounds went through this panel and 20% of them were active in at least one assay; those are over-represented in the sample as a whole. Activity calls are given as the source filed them. The calls were made as follows: active = growth percent below 10; inactive = the rest.
The reader will find reported growth values listed item by item below.
assay-readout: growth

>>> result("Cc1cc[c-]cc1.Fc1c[c-]c(-c2ccccn2)c(F)c1.N#CCC[PH+](CCC#N)c1ccccc1.[Pt+2]")
"108% (inactive)"
>>> result("COCC1OC2OC3C(COC)OC(OC4C(COC)OC(OC5C(COC)OC(OC6C(COC)OC(OC7C(COC)OC(OC8C(COC)OC(OC1C(O)C2O)C(O)C8O)C(O)C7O)C(O)C6O)C(O)C5O)C(O)C4O)C(O)C3O (stereo not drawn) (tested in a mixture with another compound)")
"117% (inactive)"
>>> result("CCOC(=O)C1C(C=C(C)C)C1(C)C (stereo not drawn)")
"105% (inactive)"
>>> result("C[C@]12CCC3[C@@H](C[C@@H]4SC(Nc5ccccc5)=N[C@@]45CC(=O)CC[C@]35C)[C@@H]1CCC2=O (stereo partly drawn)")
"56.9% (inactive)"
>>> result("Cc1cc[c-]cc1.Fc1c[c-]c(-c2ccccn2)c(F)c1.[Pt+2].c1ccc([PH+](c2ccccc2)c2ccccn2)cc1")
"91.7% (inactive)"
>>> result("Nc1nc(=S)nc(N)[nH]1")
"102% (inactive)"
>>> result("N[C@@H](CCC(=O)CCl)C(=O)O")
"108% [20 µM] (inactive)"
>>> result("C[N+]1(C)CCCC1c1cccnc1 (stereo not drawn)")
"108% (inactive)"

====

# Tested on: TK-10 renal
# assay-overview: NCI-60 one-dose screen, 48 h
# condition-label: 10 µM unless noted
Compounds without any hit were thinned out: in the full panel of roughly 83,000, 20% have a hit. Active and inactive are the calls of the source. How the source made its calls: active means growth percent below 10; inactive means the rest.
Possible outcomes: active, inactive

>>> assigned_label("Cc1c(C)c(N)c(C)c(C)c1N")
"inactive"
>>> assigned_label("CC[C@H](C)[C@H](NC(=O)[C@H]1CCCCN1C)C(=O)N(C)[C@H](CCc1nc(C(=O)N[C@@H](Cc2ccccc2)C[C@H](C)C(=O)O)cs1)C(C)C")
"inactive"
>>> assigned_label("CCC(=O)C(CC(C)N1CCCCCC1)(c1ccccc1)c1ccccc1 (stereo not given)")
"inactive"
>>> assigned_label("COc1ccc(N)cc1OC")
"inactive"
>>> assigned_label("CC(=O)Cc1ccc2c(c1)OCO2")
"inactive"
>>> assigned_label("C/C(=C\\c1ccn(-c2ccc(N)c(C(F)(F)F)c2)n1)[C@@H]1C[C@@H]2O[C@]2(C)CCC[C@H](C)[C@H](O)[C@@H](C)C(=O)C(C)(C)[C@@H](O)CC(=O)O1")
"inactive"
>>> assigned_label("Oc1cc(Cl)ccc1Oc1ccc(Cl)cc1Cl")
"inactive"
>>> assigned_label("C[C@H](O)CCC(=O)c1ccoc1")
"inactive"
>>> assigned_label("C[C@@]12CCCc3coc(c31)C(=O)c1cc3c(cc12)C(=O)C1=C(NCCS1(=O)=O)C3=O")
"inactive"
>>> assigned_label("CCC(=O)C(CC(C)[N+](C)(C)C)(c1ccccc1)c1ccccc1 (stereo not given)")
"inactive"
>>> assigned_label("CC1(C)N=C(N)N=C(N)N1c1ccc(CCC(=O)Nc2ccc(S(=O)(=O)F)cc2)cc1")
"inactive"
>>> assigned_label("CCOC(=O)C1C(C=C(C)C)C1(C)C (stereo not given)")
"inactive"
>>> assigned_label("O=C(NC1=NCC[Se]1)c1ccccc1O")
"inactive"
>>> assigned_label("CC1OC(=O)C(C(C)C)NC(=O)C(C(C)C)OC(=O)C(C(C)C)NC(=O)C(C)OC(=O)C(C(C)C)NC(=O)C(C(C)C)OC(=O)C(C(C)C)NC(=O)C(C)OC(=O)C(C(C)C)NC(=O)C(C(C)C)OC(=O)C(C(C)C)NC1=O (stereo not given)")
"inactive"
>>> assigned_label("N#CC(C#N)=Cc1cccc(F)c1")
"inactive"
>>> assigned_label("CC(=O)OC1CC2(O)C(CCC3(C)C(c4ccc(=O)oc4)CCC32O)C2(C)CCC(OC3OC(CO)C(O)C(O)C3O)C=C12 (stereo not given)")
"active"
>>> assigned_label("C[C@]12CCc3sc(Nc4ccc(F)cc4F)nc3C1=CC[C@@H]1[C@@H]2CC[C@]2(C)C(=O)CC[C@@H]12")
"inactive"
>>> assigned_label("C[Se]/C=C1/C(=O)N(c2c(Cl)cccc2Cl)c2ccccc21")
"inactive"
>>> assigned_label("C[N+]1(CC#CC[N+]2(C)CCCC2)CCCC1")
"inactive"
>>> assigned_label("CC(=O)c1cccc(S(=O)(=O)F)c1")
"inactive"

====

# Tested on: NCI-H322M lung
# assay-overview: NCI-60 one-dose screen, 48 h (100 = growth as untreated, 0 = no growth, -100 = all killed)
# condition-label: 10 µM unless noted
# Method: Growth inhibition of the NCI-H322M human Non-Small Cell Lung tumor cell line is measured as a screen for anti-cancer activity. Cells are grown in 96 well plates and exposed to the test compound for 48 hours. Compounds are tested at a single concentration, which is 10^-5 M for most compounds. The reported endpoint is percent growth (GI% or GIPRCNT), where numbers from 0 - 100% represent growth inhibition, and numbers from -100% - 0 represent cell death. […]
This is part of a sample that, as a whole, favours compounds with a hit. Of some 83,000 tested, about 20% had one in any assay.
assay-readout: growth (%)

>>> readout_number("COc1ccc2c(c1)c(-c1nc(-c3cn(C)c4ncccc34)cs1)cn2CCCCN1CCOCC1")
65.9
>>> readout_number("CCCC(C)SP(=S)(SC(C)CCC)SC(C)CCC (configuration not stated)")
101
>>> readout_number("C[C@]12CCc3sc(Nc4ccc(OC(F)(F)F)cc4)nc3C1=CC[C@@H]1[C@@H]2CC[C@]2(C)C(=O)CC[C@@H]12")
77.3
>>> readout_number("O=c1c2ccccc2nc(-c2ccccc2Cl)n1-c1nnc(C(F)(F)F)s1")
17.6
>>> readout_number("C[N+]1(CC#CC[N+]2(C)CCCC2)CCCC1")
99.8
>>> readout_number("CCCC[C@H]1C(=O)O[C@H](C)[C@H](NC(=O)c2cccc(NC=O)c2O)C(=O)O[C@@H](C)[C@@H]1OC(=O)CC(C)C")
66.3
>>> readout_number("C[C@]12CC[C@H](O)C[C@@H]1CC[C@@H]1[C@@H]2CC[C@]2(C)OC(=O)CC[C@@H]12")
87.2
>>> readout_number("N#CC(C#N)=Cc1cccc(F)c1")
104
>>> readout_number("N#CCN(CC#N)[N+](=O)[O-]")
110
>>> readout_number("CCC1(NC(=O)c2cc(F)c(F)c(F)c2F)C(=O)NC(=O)N(C(C)C)C1=O (configuration not stated)")
90.2
>>> readout_number("C[C@]12CCC(=O)C[C@@H]1CC[C@@H]1[C@@H]2CC[C@]2(C)[C@@H](OC(=O)N(CCCl)N=O)CC[C@@H]12")
49.3
>>> readout_number("S=P(SP(=S)(c1ccccc1)c1ccccc1)(c1ccccc1)c1ccccc1")
107
>>> readout_number("COc1c(O)cc2c(c1OC)-c1ccc(SC)c(=O)cc1C(NC(C)=O)CC2 (configuration not stated)")
41.1
>>> readout_number("CC[C@H](C)[C@H](NC(=O)c1ncccn1)C(=O)N(C)[C@H](C[C@@H](OC(C)=O)c1nc(C(=O)N[C@@H](Cc2ccccc2)C[C@H](C)C(=O)OC)cs1)C(C)C")
42
>>> readout_number("C[C@]12CCc3sc(Nc4ccc(F)cc4)nc3C1=CC[C@@H]1[C@@H]2CC[C@]2(C)C(=O)CC[C@@H]12")
82.1
>>> readout_number("CN1CCN(c2ccc(Cl)cc2)CC1")
94.2
>>> readout_number("C=C[Se]CC(=O)/C=C/c1ccccc1")
6
>>> readout_number("CC1(C)S[C@H]2CC[C@H]3OC(=O)[C@@H]1N23")
98.7
>>> readout_number("O=Cc1cn(Cc2ccccc2)c2ccccc12")
86
>>> readout_number("COc1cc(-c2ccc(N)c(OC)c2)ccc1N")
84.4
>>> readout_number("ClC1OC(Cl)(Cl)C(Cl)(Cl)OC1(Cl)Cl (configuration not stated)")
100
>>> readout_number("CCCCOC(N)=O")
102
>>> readout_number("C[C@@]12CCCc3coc(c31)C(=O)c1cc3c(cc12)C(=O)C1=C(NCCS1(=O)=O)C3=O")
-6.28
>>> readout_number("Cc1c2ccncc2c(C)c2c1[nH]c1ccccc12")
-83.3
>>> readout_number("CC(C)CCC1C(=O)NC(=O)NC1=O")
94.4
>>> readout_number("O=C(O)CNCP(=O)(O)O")
106
>>> readout_number("Cc1nnc([S-])o1.[Au+].c1ccc([PH+](c2ccccc2)c2ccccc2)cc1")
88.4
>>> readout_number("COC(=O)C12C3C4C1C1C2C3C41NC(=O)c1csc([C@@H](C[C@H](C(C)C)N(C)C(=O)[C@@H](NC(=O)[C@H]2CCCCN2C)C2CC2)OC(C)=O)n1 (some centres not stated)")
38.5
>>> readout_number("N#CCC(=O)c1ccccc1")
96.6
>>> readout_number("Cc1cc(Br)c([N+](=O)[O-])cc1[N+](=O)[O-]")
132
>>> readout_number("O=C1C=C(N2CC2)c2ccccc2C1=O")
91.1
>>> readout_number("C[Se]/C=C1/C(=O)N(c2c(Cl)cccc2Cl)c2ccccc21")
37.5
>>> readout_number("Cc1cc(N(CCCl)CCCl)ccc1C=Nc1ccc(-c2csc(-c3ccccc3)n2)cc1")
117
>>> readout_number("CC(=O)Cc1ccc2c(c1)OCO2")
113
>>> readout_number("Cc1ccccc1-n1c(/C=C\\c2ccccn2)nc2ccccc2c1=O")
44.9
>>> readout_number("COC12CC3C4=CCOC5CC(=O)N6c7ccccc7C1(CCN2C4)C6C53 (configuration not stated)")
109
>>> readout_number("O=S(=O)(F)c1cccc(Cl)c1C[P+](c1ccccc1)(c1ccccc1)c1ccccc1")
97.9
>>> readout_number("c1ccc2c(c1)O[As](O[As]1Oc3ccccc3O1)O2")
58.5
>>> readout_number("Cn1cc(C(=O)C[n+]2ccccc2)c2ccccc21")
104
>>> readout_number("CC1=C(C)C(=O)O[C@@H]([C@](C)(O)[C@]2(O)CC[C@@]3(O)[C@@H]4C[C@H]5O[C@]56CC=CC(=O)[C@]6(C)[C@H]4CC[C@]23C)C1")
-15.5
>>> readout_number("CN(C)c1ccc(C=C2C(=O)NC(=O)NC2=O)cc1")
123
>>> readout_number("CN1[C@@H](CC(=O)c2ccccc2)CCC[C@H]1CC(=O)c1ccccc1")
110
